Target: PD brain-derived a-synuclein aggregates (Homo sapiens, UniProt P37840)
Procedure text: Micro-radiobinding competition assay against a-syn reference on PD brain-derived insoluble fraction
Condition summary: against [3H]-reference a-syn compound
pKi: −log10 of the molar value.
Measured quantity: pKi

>>> print(df.to_string())
                                   compound  assay_value
0  O=C1c2sc(-c3ccc(N4CC[C@@H](F)C4)nc3F)nc2CCN1c1cccnc1 [Compound 1]       < 6.30

---

Target: Human brain derived TDP-43 aggregates (Homo sapiens)
Construct: Human FTD sarkosyl-insoluble brain extracts were spotted onto microarray slides
Procedure text: Micro-radiobinding competition assay for binding affinity to TDP-43
Condition summary: 0.24 nM to 2 μM vs tritiated reference ligand at 40 nM
pKi: −log10 of the molar value.
Entry flag: Met if pKi reaches 8; Not met if it does not.

                                   molecule                                    target      cat
0  O=C1c2sc(-c3ccc(N4CC[C@@H](F)C4)nc3F)nc2CCN1c1cnsc1 [Compound 22]  Human brain derived TDP-43 aggregates (Homo sapiens)  Not met
1  N#Cc1c(N)cccc1N1CCc2nc(-c3ccc(N4CC[C@@H](F)C4)nc3F)sc2C1=O [Compound 34]  Human brain derived TDP-43 aggregates (Homo sapiens)      Met
2  O=C1c2sc(-c3ccc(N4CC[C@H](F)C4)nc3F)nc2CCN1c1cccnc1 [Compound 8]  Human brain derived TDP-43 aggregates (Homo sapiens)  Not met
3  O=C1c2sc(-c3ccc(N4CC[C@H](F)C4)nc3F)nc2CCN1c1ncccn1 [Compound 16]  Human brain derived TDP-43 aggregates (Homo sapiens)      Met
4  N#Cc1c(N)cccc1N1CCc2nc(-c3ccc(N4CC[C@H](F)C4)nc3F)sc2C1=O [Compound 32]  Human brain derived TDP-43 aggregates (Homo sapiens)      Met

---

Target: Human brain derived TDP-43 aggregates (Homo sapiens, UniProt Q13148)
Construct: Human FTD sarkosyl-insoluble brain extracts were spotted onto microarray slides
Sequence (Q13148 261-414 limits assumed): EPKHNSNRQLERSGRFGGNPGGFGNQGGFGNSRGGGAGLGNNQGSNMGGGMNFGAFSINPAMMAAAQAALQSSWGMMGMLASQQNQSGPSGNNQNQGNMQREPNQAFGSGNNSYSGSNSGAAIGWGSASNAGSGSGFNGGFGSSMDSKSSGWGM
Procedure text: Micro-radiobinding competition assay for binding affinity to TDP-43
Condition summary: non-radiolabeled compound at 2 μM vs tritiated reference ligand at 40 nM; FTD sarkosyl-insoluble brain extracts
Measured quantity: Human brain derived TDP-43 aggregates Mean % competition at 2 μM (%)

>>> df
                                   compound                                    target  assay_value
0  N#Cc1c(N)cccc1N1CCc2nc(-c3ccc(N4CCC[C@H](F)C4)nc3F)sc2C1=O [Compound 31]  Human brain derived TDP-43 aggregates (Homo sapiens, UniProt Q13148)           70
1  Nc1cc(N2CCc3nc(-c4ccc(N5CCCC5)nc4F)sc3C2=O)ccc1F [Compound 10]  Human brain derived TDP-43 aggregates (Homo sapiens, UniProt Q13148)           75
2  O=C1c2sc(-c3ccc(N4CC[C@H](F)C4)nc3F)nc2CCN1c1cnsc1 [Compound 25]  Human brain derived TDP-43 aggregates (Homo sapiens, UniProt Q13148)           96
3  O=C1c2sc(-c3ccc(N4CCCC4)nc3F)nc2CCN1c1ccc(F)nc1 [Compound 12]  Human brain derived TDP-43 aggregates (Homo sapiens, UniProt Q13148)           59
4  O=C1c2sc(-c3ccc(N4CCC[C@H](F)C4)nc3F)nc2CCN1c1cnsc1 [Compound 27]  Human brain derived TDP-43 aggregates (Homo sapiens, UniProt Q13148)           94
5  O=C1c2sc(-c3ccc(N4CC[C@H](F)C4)nc3F)nc2CCN1c1ccnnc1 [Compound 36]  Human brain derived TDP-43 aggregates (Homo sapiens, UniProt Q13148)           75
6  O=C1c2sc(-c3ccc(N4CCC[C@@H](F)C4)nc3F)nc2CCN1c1cnsc1 [Compound 24]  Human brain derived TDP-43 aggregates (Homo sapiens, UniProt Q13148)           83
7  O=C1c2sc(-c3ccc(N4CC[C@H](F)C4)nc3F)nc2CCN1c1ncccn1 [Compound 16]  Human brain derived TDP-43 aggregates (Homo sapiens, UniProt Q13148)           96
8  O=C1c2sc(-c3ccc(N4CC[C@@H](F)C4)nc3F)nc2CCN1c1cncnc1 [Compound 13]  Human brain derived TDP-43 aggregates (Homo sapiens, UniProt Q13148)           84
9  O=C1c2sc(-c3ccc(N4CCCC4)nc3F)nc2CCN1c1ccncc1 [Compound 14]  Human brain derived TDP-43 aggregates (Homo sapiens, UniProt Q13148)           34

---

Let's go through some recorded Kd values for human FTD Type A sarkosyl-insoluble brain extracts (Homo sapiens) together.
Measured quantity: Kd (nM)

>>> print(df.to_string())
                                   compound  measured_quantity  assay_value
0  O=C1c2sc(-c3ccc(N4CC[C@H](F)C4)nc3F)nc2CCN1c1ncccn1 [[^3H]-Compound 16]                 Kd           24
1  [3H]C([3H])(O)C1CCN(c2ccc(-c3nc4c(s3)C(=O)N(c3cccnc3)CC4)c(F)n2)CC1 [[^3H]-Compound 17]                 Kd           25

---

Target: Human brain derived TDP-43 aggregates (Homo sapiens, UniProt Q13148)
Construct: Human FTD sarkosyl-insoluble brain extracts were spotted onto microarray slides
Procedure text: Micro-radiobinding competition assay for binding affinity to TDP-43
Condition summary: non-radiolabeled compound at 2 μM vs tritiated reference ligand at 40 nM; FTD sarkosyl-insoluble brain extracts
Measured quantity: Human brain derived TDP-43 aggregates Mean % competition at 2 μM (%)

In [3]: df
Out[3]:
                            structure_smiles                                    target  assay_value
 0  Cn1cc(N2CCc3nc(-c4ccc(N5CCCC5)nc4F)sc3C2=O)cn1  Human brain derived TDP-43 aggregates (Homo sapiens, UniProt Q13148)           85
 1  O=C1c2sc(-c3ccc(N4CC[C@H](F)C4)nc3F)nc2CCN1c1cccnc1  Human brain derived TDP-43 aggregates (Homo sapiens, UniProt Q13148)           73
 2  O=C1c2sc(-c3ccc(N4CCC(CO)CC4)nc3F)nc2CCN1c1cccnc1  Human brain derived TDP-43 aggregates (Homo sapiens, UniProt Q13148)           85
 3  O=C1c2sc(-c3ccc(N4CCCC4)nc3F)nc2CCN1c1cccnc1  Human brain derived TDP-43 aggregates (Homo sapiens, UniProt Q13148)           75
 4  O=C1c2sc(-c3ccc(N4CCC[C@H](F)C4)nc3F)nc2CCN1c1ncccn1  Human brain derived TDP-43 aggregates (Homo sapiens, UniProt Q13148)           70
 5  Nc1cc(N2CCc3nc(-c4ccc(N5CCC[C@H](F)C5)nc4F)sc3C2=O)ccn1  Human brain derived TDP-43 aggregates (Homo sapiens, UniProt Q13148)           86
 6  N#Cc1c(N)cccc1N1CCc2nc(-c3ccc(N4CC[C@@H](F)C4)nc3F)sc2C1=O  Human brain derived TDP-43 aggregates (Homo sapiens, UniProt Q13148)           77
 7  O=C1c2sc(-c3ccc(N4CCCCC4)nc3F)nc2CCN1c1ccnc(F)c1  Human brain derived TDP-43 aggregates (Homo sapiens, UniProt Q13148)          104
 8  O=C1c2sc(-c3ccc(N4CC[C@@H](F)C4)nc3F)nc2CCN1c1cscn1  Human brain derived TDP-43 aggregates (Homo sapiens, UniProt Q13148)           86
 9  O=C1c2sc(-c3ccc(N4CC[C@@H](F)C4)nc3F)nc2CCN1c1cccnc1  Human brain derived TDP-43 aggregates (Homo sapiens, UniProt Q13148)           78
10  O=C1c2sc(-c3ccc(N4CC[C@H](F)C4)nc3F)nc2CCN1c1ccncn1  Human brain derived TDP-43 aggregates (Homo sapiens, UniProt Q13148)           70
11  Nc1cc(N2CCc3nc(-c4ccc(N5CC[C@H](F)C5)nc4F)sc3C2=O)ccn1  Human brain derived TDP-43 aggregates (Homo sapiens, UniProt Q13148)           91
12  O=C1c2sc(-c3ccc(N4CC[C@@H](F)C4)nc3F)nc2CCN1c1ncccn1  Human brain derived TDP-43 aggregates (Homo sapiens, UniProt Q13148)           86
13  O=C1c2sc(-c3ccc(N4CC[C@@H](F)C4)nc3F)nc2CCN1c1cnsc1  Human brain derived TDP-43 aggregates (Homo sapiens, UniProt Q13148)          100
14  N#Cc1c(N)cccc1N1CCc2nc(-c3ccc(N4CCC[C@@H](F)C4)nc3F)sc2C1=O  Human brain derived TDP-43 aggregates (Homo sapiens, UniProt Q13148)           93
15  Cn1cc(N2CCc3nc(-c4ccc(N5CC[C@@H](F)C5)nc4F)sc3C2=O)cn1  Human brain derived TDP-43 aggregates (Homo sapiens, UniProt Q13148)          102
16  N#Cc1c(N)cccc1N1CCc2nc(-c3ccc(N4CC[C@H](F)C4)nc3F)sc2C1=O  Human brain derived TDP-43 aggregates (Homo sapiens, UniProt Q13148)           80
